Below, each entry is listed alongside its reported Ki.
- ASSAY: Displacement of [125I]DMFV from amyloid beta (1 to 42) aggregates
EXPERIMENTAL ENDPOINT: Ki

- Nc1ccc(-c2cc(=O)c3cc(F)ccc3o2)cc1: 260 nM
- CN(C)c1ccc(-c2cc(=O)c3cc(OCCOCCF)ccc3o2)cc1: 14.4 nM
- Nc1ccc(-c2cc(=O)c3cc(OCCOCCOCCF)ccc3o2)cc1: 234 nM
- CNc1ccc(-c2cc(=O)c3cc(OCCOCCOCCF)ccc3o2)cc1: 45.1 nM
- CNc1ccc(-c2cc(=O)c3cc(OCCOCCF)ccc3o2)cc1: 54.5 nM
- CN(C)c1ccc(-c2cc(=O)c3cc(OCCF)ccc3o2)cc1: 5.3 nM
- Nc1ccc(-c2cc(=O)c3cc(OCCF)ccc3o2)cc1: 234 nM
- CN(C)c1ccc(-c2cc(=O)c3cc(OCCOCCOCCF)ccc3o2)cc1: 19.3 nM
- CNc1ccc(-c2cc(=O)c3cc(OCCF)ccc3o2)cc1: 99 nM
- CN(C)c1ccc(-c2cc(=O)c3cc(F)ccc3o2)cc1: 73.9 nM
- CNc1ccc(-c2cc(=O)c3cc(F)ccc3o2)cc1: 110 nM
- Nc1ccc(-c2cc(=O)c3cc(OCCOCCF)ccc3o2)cc1: 321 nM
